The measurements presented in this section are drawn from patent US20240327334A1.

Below, each entry is listed with its recorded EC50.
- System: SARS-CoV-2 replicon
- testProtocol: microbe, parasite or virus in culture
- Format: cell-based
- conditionNotes: Severe acute respiratory syndrome coronavirus 2, Huh-7
readout: EC50

                                    compound  experimentalvalue
 0  N#CCNC(=O)C(=O)NCc1ccccc1C(=O)NC1(c2cc(C#N)cc3ccccc23)CC1 [Example 294]          < 1000 nM
 1  O=C(NCC#Cc1ncc(F)cn1)C(=O)NCc1ccccc1C(=O)NC1(c2ccc3ccccc3c2)CC1 [Example 176]          < 1000 nM
 2  Cn1ncc2cc(C3(NC(=O)c4ccccc4CNC(=O)C(=O)NCC#Cc4nccs4)CC3)ccc21 [Example 345]          < 1000 nM
 3  CONC(=O)/C=C/CNC(=O)C(=O)NCc1ccccc1C(=O)NC1(c2cccc3ccccc23)CC1 [Example 560]   1000 to 10000 nM
 4  O=C(NCC#Cc1nccs1)C(=O)NCc1ccccc1C(=O)NC1(c2cc(F)cc(-c3cnn(C(F)F)c3)c2)CC1 [Example 81]          < 1000 nM
 5  Cn1ccc(-c2cc(C3(NC(=O)c4ccccc4CNC(=O)C(=O)NCC#N)CC3)c3ccccc3c2)n1 [Example 290]          < 1000 nM
 6  O=C(NCC#Cc1ncccc1C(F)(F)F)C(=O)NCc1ccccc1C(=O)NC1(c2ccc3ccccc3c2)CC1 [Example 191]          < 1000 nM
 7  Cc1cccnc1C#C[C@H](C)NC(=O)C(=O)NCc1ccccc1C(=O)NC1(c2cc(F)cc(-c3cnn(C4CC4)c3)c2)CC1 [Example 266]          < 1000 nM
 8  COc1cccc(C#CCNC(=O)C(=O)NCc2ccccc2C(=O)NC2(c3ccc4ccccc4c3)CC2)n1 [Example 186]          < 1000 nM
 9  Cc1cccnc1C#CCNC(=O)C(=O)NCc1ccccc1C(=O)NC1(c2cc(F)cc(-c3cnn(C4CC4)c3)c2)CC1 [Example 262]          < 1000 nM
10  C#CCNC(=O)C(=O)NCc1ccccc1C(=O)NC1(c2cc(F)cc(-c3cnn(C)c3)c2)CC1 [Example 238]          < 1000 nM
11  C[C@@H](C#Cc1nccs1)NC(=O)C(=O)NCc1ccccc1C(=O)N[C@H](C)c1cc(F)cc(-c2cnn(C(F)F)c2)c1 [Example 496]          < 1000 nM
12  COc1cc(C2(NC(=O)c3ccccc3CNC(=O)C(=O)N[C@@H](C)C#Cc3nccs3)CC2)cc2cn(C3CC3)nc12 [Example 336]          < 1000 nM
13  C#CCNC(=O)C(=O)NCc1ccccc1C(=O)NC1(c2cccc3nc(Cl)ccc23)CC1 [Example 387]          < 1000 nM
14  CC[C@@H](C#Cc1ncc(F)cn1)NC(=O)C(=O)NCc1ccccc1C(=O)NC1(c2ccc3nn(C)cc3c2)CC1 [Example 213]          < 1000 nM
15  O=C(NCC#Cc1nccs1)C(=O)NCc1ccccc1C(=O)NC1(c2cc(Cl)cc(-c3cncs3)c2)CC1 [Example 446]          < 1000 nM
16  C[C@@H](C#Cc1nccs1)NC(=O)C(=O)NCc1ccccc1C(=O)NC1(c2ccc3nn(C)cc3c2)CC1 [Example 184]          < 1000 nM
17  COCCN(C)C(=O)/C=C/CNC(=O)C(=O)NCc1ccccc1C(=O)NC1(c2cccc3ccccc23)CC1 [Example 556]   1000 to 10000 nM
18  COc1cc(C2(NC(=O)c3ccccc3CNC(=O)C(=O)NCC#Cc3ccc(C#N)cc3OC(F)(F)F)CC2)cc2cn(C3CC3)nc12 [Example 215]          < 1000 nM
19  C#CCNC(=O)C(=O)NCc1ccccc1C(=O)NC1(c2cc(C#N)cc(-c3cccs3)c2)CC1 [Example 128]          < 1000 nM
20  COc1cnc(C#CCNC(=O)C(=O)NCc2ccccc2C(=O)NC2(c3ccc4ccccc4c3)CC2)cn1 [Example 198]          < 1000 nM
21  O=C(/C=C/CNC(=O)C(=O)NCc1ccccc1C(=O)NC1(c2cccc3ccccc23)CC1)Nc1ccccn1 [Example 569]          < 1000 nM
22  N#CCNC(=O)C(=O)NCc1ccc(C#N)cc1C(=O)NC1(c2ccc(F)c3ccccc23)CC1 [Example 55]   1000 to 10000 nM
23  O=C(NCC#Cc1ccc(C(F)(F)F)cc1F)C(=O)NCc1ccccc1C(=O)NC1(c2ccc3ccccc3c2)CC1 [Example 175]   1000 to 10000 nM
